- procedure_details: chemical genetic growth profiling, strain panel (AID 1159580);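 further: tested at 20 µM; growth read once vehicle control cultures reached saturation at 30 °C; 1 = growth at the plate median or of vehicle wells; lower values mean less growth of the strain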
- study_conditions: S. cerevisiae deletion strains, growth OD, locus YMR058W, strain fet3, stronger effect = lower value
The campaign covered roughly 5,500 compounds. About 2,000 (36%) were called active. Another 18% or so got no clear call; they are omitted. The list shows a part of the results.
Record form. Attribute: normalized growth. Fill in for each entry.

Observe how each entry below is paired with its result.
CC(C)(Oc1ccc(CCNC(=O)c2ccc(Cl)cc2)cc1)C(=O)O    0.995 (inactive)
OC(CCN1CCCCC1)(c1ccccc1)C1CC2C=CC1C2 (stereo unspecified)    1 (inactive)
COc1cccc2c1C(=O)c1c(O)c3c(c(O)c1C2=O)C[C@@](O)(C(=O)CO)C[C@@H]3O[C@H]1C[C@H](N)[C@@H](O)[C@H](C)O1    0.806 (active)
Nc1ccccc1C(=O)CC(N)C(=O)O (stereo unspecified)    1 (inactive)
COC(=O)C[C@H]1C(C)(C)C2(O)OC34CC2C(=O)[C@]1(C)C3CC[C@]1(C)C4=CC(=O)O[C@H]1c1ccoc1 (stereo partly specified)    0.999 (inactive)

Okay, now this compound:
I would be grateful if you could share the reported normalized growth for OC(CCN1CCCC1)(c1ccccc1)C1CCCCC1 (stereo unspecified) .
0.981 (inactive)

* * *

- procedure_details: chemical genetic growth profiling, strain panel (AID 1159580)
- study_conditions: S. cerevisiae deletion strains, growth OD, locus YDL040C, strain nat1, stronger effect = lower value
Hit rate of the full screen: of about 5,500 compounds, about 2,000 (36%) were called active. Inconclusive results (about 18%) are left out. The list shows a part of the results.
value_kind: normalized growth
Numbers only.

Here's what some known entries look like.
C[C@@H]1CC[C@]2(C(=O)O)CC[C@]3(C)C(=CCC4[C@@]5(C)CC[C@H](O)C(C)(C)C5CC[C@]43C)C2[C@H]1C (stereo partly drawn)    0.992
C/C=C(/C)C(=O)O[C@@H]1[C@H](OC(C)=O)[C@@]2(CO)C(CC1(C)C)C1=CCC3[C@@]4(C)CC[C@H](O[C@@H]5O[C@H](C(=O)O)[C@@H](O[C@@H]6O[C@H](CO)[C@@H](O)[C@H](O)[C@H]6O)[C@H](O)[C@H]5O[C@@H]5O[C@H](CO)[C@@H](O)[C@H](O)[C@H]5O)[C@](C)(CO)C4CC[C@@]3(C)[C@]1(C)C[C@H]2O (stereo partly drawn)    0.973
Cc1cc(O)cc(C)c1Cl    0.968
C[C@H]1[C@H](C)CC[C@]2(CO)CC[C@]3(C)C(=CCC4[C@@]5(C)CC[C@H](O)C(C)(C)C5CC[C@]43C)[C@H]12 (stereo partly drawn)    0.996
OC(CCN1CCCCC1)(c1ccccc1)C1CC2C=CC1C2 (stereo not drawn)    1

For each of the items listed, what is its normalized growth?
1. Nc1ccc(S(=O)(=O)c2ccc(N)cc2)cc1
2. Cc1cc(O)cc(O)c1C(=O)O
3. OC(CCN1CCCCC1)(c1ccccc1)C1CCCCC1 (stereo not drawn)

1. 0.991
2. 1.02
3. 0.98

* * *

- procedure_details: chemical genetic growth profiling, strain panel (AID 1159580)
- study_conditions: S. cerevisiae deletion strains, growth OD, locus YGL240W, strain doc1, stronger effect = lower value
Hit rate of the full screen: of about 5,500 compounds, about 2,000 (36%) were called active. Not shown: some 18% with an inconclusive outcome. Some of the results follow.
condition met if normalized growth is below 1. condition not met if not; exact matches included in condition not met.

CC(=O)O[C@@H]1CC[C@@]2(C)C(CC[C@]3(C)C2CC=C2C4CC(C)(C)CC[C@]4(C(=O)O)CC[C@]23C)C1(C)C (some centres undefined)    condition not met
Cc1ccc(N=CN(C)C=Nc2ccc(C)cc2C)c(C)c1    condition met
OC(CCN1CCCCC1)(c1ccccc1)C1CCCCC1 (centres undefined)    condition met
Cc1cc(-n2c(=O)[nH]c(=O)n(C)c2=O)ccc1Oc1ccc(SC(F)(F)F)cc1    condition met
COC(=O)Nc1nc2ccc(S(=O)c3ccccc3)cc2[nH]1 (centres undefined)    condition met

Determine if CC1(C)CCC2(C(=O)O)CCC3(C)C(=CCC4C5(C)CCC(O)C(C)(C)C5C(O)CC43C)C2C1 (centres undefined) shows normalized growth strictly lower than 1.
condition met

Please indicate whether the reported normalized growth of COc1c(-c2coc3cc4c(cc3c2=O)CC(OC(C)=O)C(C)(C)O4)ccc2c1C=CC(C)(C)O2 (centres undefined) is strictly below 1.
condition not met

* * *

- procedure_details: chemical genetic growth profiling, strain panel (AID 1159580);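 further: tested at 20 µM; growth read once vehicle control cultures reached saturation at 30 °C; 1 = growth at the plate median or of vehicle wells; lower values mean less growth of the strain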
- study_conditions: S. cerevisiae deletion strains, growth OD, locus YDL101C, strain DUN1, stronger effect = lower value
In all, about 5,500 compounds went through this assay and about 2,000 (36%) were called active. About 18% were inconclusive and are not listed. The list shows a part of the results.
I'd appreciate it if you could supply normalized growth values for the items below.
Give bare numbers.

CC1=CCC2C3(C)C1=CC(=O)OC3CC1C(C)(C)CC(O)C(O)C12C (stereo unspecified)    1.01
O=[N+]([O-])c1ccc(S(=O)(=O)c2ccc(Cl)cc2)cc1O    0.715
O=C(NCC(c1ccccc1)c1c[nH]c2ccccc12)c1ccc(C(F)(F)F)cc1 (stereo unspecified)    0.985

Give normalized growth for each listed item.
1. O=C(O)CSCC(=O)NC1CCN(Cc2ccccc2)CC1
2. Nc1ccc(S(=O)(=O)c2ccc(N)cc2)cc1
3. COc1cccc(-c2nc(C#N)c(N)o2)c1
4. Cc1c(S(=O)(=O)c2ccc(Cl)cc2)cnc2cc(C(C)(C)C)nn12
5. Cc1ccc2[nH]c3c(c2c1)CCCC3

0.997
1.02
0.995
1
0.778

* * *

- procedure_details: chemical genetic growth profiling, strain panel (AID 1159580);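 further: tested at 20 µM; growth read once vehicle control cultures reached saturation at 30 °C; 1 = growth at the plate median or of vehicle wells; lower values mean less growth of the strain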
- study_conditions: S. cerevisiae deletion strains, growth OD, locus YMR307W, strain GAS1
Out of some 5,500 compounds screened, about 2,000 (36%) were called active. Not shown: some 18% with an inconclusive outcome. Cut-off read from the data, not from the text of the source: active = normalized growth mostly below about 0.91 (no sharp cut-off); inconclusive = no clear call, values can overlap the other calls; inactive = mostly above about 0.92. The list shows a part of the results.
Give one outcome, nothing more. List: YES = active, NO = inactive

C[C@@H]1O[C@@H](O[C@H]2C[C@@H](O)[C@]3(CO)[C@@H]4C(CC[C@]3(O)C2)[C@@]2(O)CC[C@H](C3COC(=O)C3)[C@@]2(C)C[C@H]4O)[C@H](O)[C@H](O)[C@H]1O (stereo partly drawn)    NO
CC(C)=CCCC1(C)C=Cc2c(O)c3c(c(CC=C(C)C)c2O1)OC12C(=CCCC1C(C)(C)O[C@@]2(C/C=C(\C)C(=O)O)C(=O)O)C3=O (stereo partly drawn)    YES
O=C(NC1Cc2ccccc2C1)c1cncc(Br)c1    NO

Continue with the next compound.
Can you look up the reported call for CC(C)=CCCC1(C)C=Cc2c(O)c3c(c(CC=C(C)C)c2O1)OC12C(=CC4CC1C(C)(C)OC2(C/C=C(\C)C(N)=O)C4=O)C3=O (stereo not drawn) for me?
NO

* * *

- procedure_details: chemical genetic growth profiling, strain panel (AID 1159580);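 further: tested at 20 µM; growth read once vehicle control cultures reached saturation at 30 °C; 1 = growth at the plate median or of vehicle wells; lower values mean less growth of the strain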
- study_conditions: S. cerevisiae deletion strains, growth OD, locus YNL250W, strain rad50, stronger effect = lower value
Among all 5,500 compounds or so, about 2,000 (36%) were called active. Another 18% or so got no clear call; they are omitted. This is one part of the list.
value_kind: normalized growth
One number for each entry.

Worked cases, answers included:
CCC(C)C(NC)C(=O)O (stereo not drawn)    0.962
C#C[C@]1(O)CCC2C3CCC4=C(CCC(=O)C4)C3CC[C@@]21C (stereo partly drawn)    0.992
O=C(O)/C=C1\CCCc2ccccc2C1O (stereo not drawn)    0.979
N[C@H](C(=O)O)[C@@H]1CC(Cl)=NO1    0.246
COc1ccc2[nH]cc(CCN)c2c1    0.963
OC(CCN1CCCC1)(c1ccccc1)C1CCCCC1 (stereo not drawn)    0.967
C[C@]12CCC(=O)C=C1CCC1C2[C@@H](O)C[C@@]2(C)C1CC[C@]2(O)C(=O)CO (stereo partly drawn)    1.01
CC(=O)/C=C\[C@@H]1[C@@]2(C)CCCC(C)(C)C2CC[C@@]1(C)O (stereo partly drawn)    0.99

Dear colleague, could you please provide normalized growth for the compounds listed below?
1. CC(C)(C#N)O[C@@H]1O[C@H](CO)[C@@H](O)[C@H](O)[C@H]1O
2. C=C/C(C)=C\CC1C(C)(O)CCC2C(C)(C)CCCC21C (stereo not drawn)
3. N#CC(O[C@@H]1O[C@H](CO[C@@H]2O[C@H](CO)[C@@H](O)[C@H](O)[C@H]2O)[C@@H](O)[C@H](O)[C@H]1O)c1ccccc1 (stereo partly drawn)

[0.978, 0.894, 0.969]

Give normalized growth for all compounds that follow.
1. Nc1c2c(nc3ccccc13)CCCC2O (stereo not drawn)
2. COC(=O)Nc1nc2ccc(Sc3ccccc3)cc2[nH]1

1: 1.01; 2: 1

Your task in this section: give normalized growth for each listed record.
1. COC(=O)Nc1nc2ccc(C(=O)c3ccccc3)cc2[nH]1
2. Nc1c2ccccc2nc2ccccc12 (tested in a mixture with another compound)
3. COC1=C[C@@H]2[C@@H]3Cc4ccc(OC)c(O)c4[C@]2(CCN3C)CC1=O
4. C#C[C@]1(O)CCC2C3CCC4=CC(=O)CC[C@@H]4C3CC[C@@]21CC (stereo partly drawn)
5. CCOP(=S)(OCC)Oc1nc(Cl)c(Cl)cc1Cl
6. COc1ccc2c(c1)c(CC(=O)O)c(C)n2C(=O)c1ccc(Cl)cc1

1: 0.994; 2: 0.782; 3: 0.981; 4: 0.988; 5: 0.974; 6: 0.947

# map each compound to its normalized growth
1. CC(C)(Oc1ccc(CCNC(=O)c2ccc(Cl)cc2)cc1)C(=O)O
2. C#C[C@]1(O)CCC2C3CCC4=CC(=O)CC[C@@H]4C3CC[C@@]21C (stereo partly drawn)
3. C#C[C@]1(OC(C)=O)CCC2C3CCC4=CC(=O)CC[C@@H]4C3CC[C@@]21C (stereo partly drawn)
4. Nc1c2ccccc2nc2ccccc12

1: 1.02; 2: 0.981; 3: 0.971; 4: 0.78
